The reported measurements were obtained from patent US9809574B2.

# System: RS4; 11 leukaemia cell line
# ASSAY_SUMMARY: In vitro cytotoxicity, Microculture Tetrazolium Assay (MTT)
# Type: cell-based
# CONDITION_NOTES: Homo sapiens, 11 cells exposed for 48 hours
# Experimental: The cytotoxicity studies were carried out on the RS4; 11 leukaemia cell line and on H146 small Cell Lung Carcinoma cell line. The cells are distributed onto microplates and exposed to the test compounds for 48 hours. The cell viability is then quantified by a colorimetric assay, the Microculture Tetrazolium Assay (Cancer Res., 1987, 47, 939-942).
Field: IC50. Provide a value for each of the molecules that follow.
Give bare numbers, in nM.

{"SMILES_TEXT": "C[C@@H]1Cc2ccccc2CN1C(=O)c1cc2c(cc1-c1cc(C(=O)N(C)c3ccc(O)cc3)c3n1CCCC3)CCN(C(=O)Cc1ccc(CN3CCN(C)CC3)cc1)C2", "RESULT": 25}
{"SMILES_TEXT": "CC(=O)N(C)c1ccc(OC(=O)N2CCc3cc(-c4cc(C(=O)N(C)c5ccc(O)cc5)c(C)n4C)c(C(=O)N4Cc5ccccc5C[C@H]4CN4CCOCC4)cc3C2)cc1", "RESULT": 37}

The recorded IC50 for "CN(C(=O)c1cc(-c2cc3c(cc2C(=O)N2Cc4ccccc4C[C@H]2CN2CCOCC2)CN(S(=O)(=O)Cc2ccccc2)C3)n2c1CCCC2)c1ccc(O)cc1" is 532

* * *

# Tested on: RS4; 11 leukaemia cell line
# ASSAY_SUMMARY: In vitro cytotoxicity, Microculture Tetrazolium Assay (MTT)
# Format: cell-based
# CONDITION_NOTES: Homo sapiens, 11 cells exposed for 48 hours
Where a name gives a salt, the structure may show the parent alone.
REPORTED_PROPERTY: IC50

Look over these answered cases.
{"COMPOUND": "Cc1c(C(=O)N(C)c2ccc(O)cc2)cc(-c2cc3c(cc2C(=O)N2Cc4ccccc4C[C@H]2CN2CCOCC2)CN(C(=O)Oc2ccc(C(=O)O)cc2)CC3)n1C", "ASSAYED_SYSTEM": "RS4; 11 leukaemia cell line", "RESULT": "> 150 nM"}
{"COMPOUND": "Cc1c(C(=O)N(C)c2ccccc2)cc(-c2cc3c(cc2C(=O)N2Cc4ccccc4C[C@H]2CN2CCOCC2)CN(C(=O)Oc2ccc4cc[nH]c4c2)CC3)n1C", "ASSAYED_SYSTEM": "RS4; 11 leukaemia cell line", "RESULT": "9 nM"}
{"COMPOUND": "CCCN(C(=O)c1cc(-c2cc3c(cc2C(=O)N2Cc4ccccc4C[C@H]2CN2CCOCC2)CN(C(=O)Cc2ccccc2)CC3)n(C)c1C)c1ccc(O)cc1", "ASSAYED_SYSTEM": "RS4; 11 leukaemia cell line", "RESULT": "9.7 nM"}
{"COMPOUND": "C[C@@H]1Cc2ccccc2CN1C(=O)c1cc2c(cc1-c1cc(C(=O)N(C)c3ccc(O)cc3)c3n1CCCC3)CCN(C(=O)c1ccccc1)C2", "ASSAYED_SYSTEM": "RS4; 11 leukaemia cell line", "RESULT": "8.5 nM"}
{"COMPOUND": "Cc1c(C(=O)N(C)c2ccc(O)cc2)cc(-c2cc3c(cc2C(=O)N2Cc4ccccc4C[C@H]2CN2CCOCC2)CN(C(=O)CCc2ccccc2)CC3)n1C", "ASSAYED_SYSTEM": "RS4; 11 leukaemia cell line", "RESULT": "36 nM"}

The recorded IC50 for Cc1ccc(OC(=O)N2CCc3cc(-c4cc(C(=O)N(C)c5ccc(O)cc5)c5n4CCCC5)c(C(=O)N4Cc5ccccc5C[C@H]4CN4CCOCC4)cc3C2)cc1 [Example 98, hydrochloride] is 1.8 nM
